ASSAY_PROTOCOL: qHTS Assay for Lipid Storage Modulators in Drosophila S3 Cells; also: potency is read from the fitted curve at half-maximal effect
CONDITIONS: BODIPY lipid droplet fluorescence, 18-24 h, cells fed with added oleic acid; series mostly up to 46.1 µM
Out of some 320,000 compounds screened, about 2,100 (0.66%) were called active. Inconclusive results (about 53%) are left out. Many of the other results were omitted from the sample, so actives are more common in it than they were.
QUANTITY_NAME: Potency

Example entries and their recorded answers appear below.
Looking up CCOc1ccc(C(C)=O)cc1CN1C(=O)NC2(CCCCC2C)C1=O (stereo unspecified) , I see its Potency listed as inactive

Per the records, this compound ( N#Cc1c(-c2ccccc2)cc(-c2ccc3c(c2)OCO3)[nH]c1=O ) has Potency equal to 8.2 µM (active)

Potency in this record for COCCNCC(=O)C12CC3CC(CC(C3)C1)C2 : 16.4 µM (active)

CN1CCN(c2ccc(NC(=O)c3ccc(-c4cccc([N+](=O)[O-])c4)o3)cc2)CC1 has a reported Potency of inactive

Record COCCC(=O)NC12CC3CC(CC(C3)C1)C2 , field Potency: inactive

More entries:
Potency recorded for this compound, N#Cc1c(-c2ccc3c(c2)OCO3)cc[nH]c1=O , is inactive
